tested on: Saccharomyces cerevisiae; test: protein stability index of tFT-peptide fusion (C-terminal peptide) (PSI (0-1 scale)); higher = more stable (slower turnover); details: genetic background: wild type; temperature: 30 C
Measured protein stability index accompanies every entry in the list below.
Answer using only a numeral; do not append any unit.

Below are worked cases with known answers.
Look at this sequence and give its reported protein stability index. LLTAMSAQISFD [AAD16 C-terminal 12 aa]
0.72

Try EEEKRHGINLKC [GUP2 C-terminal 12 aa] next.
0.687

Try EEWSSKFGSNGS [YTA6 C-terminal 12 aa] next.
0.725

Try RYAHIGGLHQRT [PRR2 C-terminal 12 aa] next.
0.686

Try LIVSYCASVAFG [ATG12 C-terminal 12 aa] next.
0.382

Try EDHRDISGKDVN [UBP1 C-terminal 12 aa] next.
0.687

Try SQTQAGSAYYTK [YOR268C C-terminal 12 aa] next.
0.688

Try PFPLLRLSAPFK [OST3 C-terminal 12 aa] next.
0.749

---
Look at this sequence and give its reported protein stability index. DETIKLKDKKIK [MRPL6 C-terminal 12 aa]
0.655

Try IRCVFMFRTNAK [YLR296W C-terminal 12 aa] next.
0.595

Try ARAAEERMKKKY [VMS1 C-terminal 12 aa] next.
0.663

Try KIEVSSQESWGN [HSP26 C-terminal 12 aa] next.
0.693

* * *

system: Saccharomyces cerevisiae; assay: protein stability index of tFT-peptide fusion (C-terminal peptide) (PSI (0-1 scale)); higher = more stable (slower turnover); conditions: genetic background: wild type; temperature: 30 C
If the reported protein stability index equals or exceeds 0.7, assign y. If not, assign n.

State whether the measured protein stability index reaches 0.7, counting equality as reaching it, for EIGGLLLQSFYN [YPL119C-A C-terminal 12 aa]
y

Try PELSSTVSHNRA [WSC3 C-terminal 12 aa] next.
y

---
State whether the measured protein stability index reaches 0.7, counting equality as reaching it, for LKLKRDLLRLKR [CIP1 C-terminal 12 aa]
n

* * *

test system: Saccharomyces cerevisiae; assay: protein stability index of tFT-peptide fusion (C-terminal peptide) (PSI (0-1 scale)); higher = more stable (slower turnover); details: genetic background: cdc53-1; temperature: 37 C
Measured protein stability index accompanies every entry in the list below.

Look at this sequence and give its reported protein stability index. RLSGACILLSLV
0.694

Try FMCCFWFFWLGF next.
0.518

Try CASIVDGFAFRF next.
0.782

Try HCNRLIFWYKCT next.
0.745

Try WAAVGIQLRLLF next.
0.34

Try LVFGFSLILRVG next.
0.203

Try FFICCPLLVVCS next.
0.0453

Try FVVGFVCSMVWG next.
0.216

Try FCFFSMGFVLAL next.
0.365

Try LPTGLKTFLIAF next.
0.485

---
Look at this sequence and give its reported protein stability index. PSCLLVAPRFSS
0.745

Try RWSEHGFLVFLS next.
0.736

* * *

tested on: Saccharomyces cerevisiae; assay: protein stability index of tFT-peptide fusion (C-terminal peptide) (PSI (0-1 scale)); higher = more stable (slower turnover); conditions: genetic background: wild type; temperature: 30 C
experimental_endpoint: protein stability index
Answer using only a numeral; do not append any unit.

Saccharomyces cerevisiae / protein stability index / PTLPSRYPPPMF : value?
0.751

---
Saccharomyces cerevisiae / protein stability index / GGVGVGRGVCVF : value?
0.619

Try PPPTPACPPATL next.
0.693

Try QKKKKKKKRKKT next.
0.59

Try APPPPAVPHYRP next.
0.667

Try VFLVRTVTQISA next.
0.304

Try DGSRSFSYSTAG next.
0.642

Try FGSLMFCLLPLH next.
0.653

Try AEEWPVRAGGRG next.
0.609

Try CLLSRYRVFFLG next.
0.29

Try AGGGGGDAGRGV next.
0.744

Try PIAPDPAPVGLD next.
0.721

Try RLPAVPSHPGLL next.
0.729

Try RGLRRIPDAPPH next.
0.757

Try TGLLGLVGSQVP next.
0.67

Try VLNSTSFLNKNL next.
0.712

* * *

test system: Saccharomyces cerevisiae; assay: protein stability index of tFT-peptide fusion (C-terminal peptide) (PSI (0-1 scale)); higher = more stable (slower turnover); details: genetic background: wild type; temperature: 30 C
experimental_endpoint: protein stability index
Answer using only a numeral; do not append any unit.

Below are worked cases with known answers.
Look at this sequence and give its reported protein stability index. RIPSDLTLNPRG
0.669

Try LSSCPPPALRLP next.
0.715

---
Look at this sequence and give its reported protein stability index. LIKKSFYMKIIK
0.59

Try SLPTPPLFPSFP next.
0.731

Try QPLSFAYMPPLS next.
0.653

Try CPTHPLFLDSYV next.
0.676

Try LPPSPLMTRTCA next.
0.634

Try PPRSSLNPDLTQ next.
0.695

Try RHGRDNPSGRLN next.
0.69

Try GWRVVWAVCGHF next.
0.597

* * *

test system: Saccharomyces cerevisiae; test: protein stability index of tFT-peptide fusion (C-terminal peptide) (PSI (0-1 scale)); higher = more stable (slower turnover); conditions: genetic background: cdc53-1; temperature: 37 C
# label = bin(measured protein stability index), where bins are interval 1 (below 0.5), interval 2 (0.5 to below 0.7), interval 3 (0.7 or more)

Consider the following illustrative entries.
Kindly identify the class of VVVCSLVPLFVL .
interval 1

Try DIGCLWSKTRLC next.
interval 3

Try SAVLFLLFVYVR next.
interval 1

Try FRDRFLRWNLVS next.
interval 2

Try LSRHLILFIVIR next.
interval 1

Try LFGFLCVVMCCG next.
interval 2

---
Kindly identify the class of GIANHAMVIVVL .
interval 1

Try WYVRVYVLSVES next.
interval 1

Try GRLVPVILLKLV next.
interval 1

Try LVRGSRLIVIVG next.
interval 1

* * *

test system: Saccharomyces cerevisiae; assay: protein stability index of tFT-peptide fusion (C-terminal peptide) (PSI (0-1 scale)); higher = more stable (slower turnover); details: genetic background: das1 deletion; temperature: 30 C
Measured protein stability index accompanies every entry in the list below.
Answer using only a numeral; do not append any unit.

Below are worked cases with known answers.
Look at this sequence and give its reported protein stability index. DILQITNIKQKR
0.676

Try LFGFLCVVMCCG next.
0.44

Try VLLMFFFRFSAL next.
0.545

Now for another entry.
Look at this sequence and give its reported protein stability index. FFSQLFLEIVAA
0.179

* * *

system: Saccharomyces cerevisiae; experiment: protein stability index of tFT-peptide fusion (C-terminal peptide) (PSI (0-1 scale)); higher = more stable (slower turnover); conditions: genetic background: cdc53-1; temperature: 37 C
If the reported protein stability index equals or exceeds 0.6, assign 1. If not, assign 0.

State whether the measured protein stability index reaches 0.6, counting equality as reaching it, for LFVFVISSSSFP
0

Try RKFRAWIRITRT next.
1

Try VVPVGLYSVILV next.
0

Try RGWGGGTWVKMG next.
1

Try RPSHTSVYRLLH next.
1

Kindly review the next sequence as well.
State whether the measured protein stability index reaches 0.6, counting equality as reaching it, for YLFPHVRPKFPG
1

* * *

tested on: Saccharomyces cerevisiae; test: protein stability index of tFT-peptide fusion (C-terminal peptide) (PSI (0-1 scale)); higher = more stable (slower turnover); settings: genetic background: cdc34-1; temperature: 37 C
experimental_endpoint: protein stability index
Answer using only a numeral; do not append any unit.

Look at this sequence and give its reported protein stability index. LNLACCWFVRCR
0.311

* * *

tested on: Saccharomyces cerevisiae; experiment: protein stability index of tFT-peptide fusion (C-terminal peptide) (PSI (0-1 scale)); higher = more stable (slower turnover); settings: genetic background: das1 deletion; temperature: 30 C
experimental_endpoint: protein stability index
Answer using only a numeral; do not append any unit.

Below are worked cases with known answers.
Look at this sequence and give its reported protein stability index. WVIWFFVAACLR
0.209

Try CGVWVVVASAYR next.
0.302

Try SKSRKTGWMLIS next.
0.632

Try LGVVVGGVRGVG next.
0.461

Try APGGRGAAGPSC next.
0.631

Now for another entry.
Look at this sequence and give its reported protein stability index. DIGCLWSKTRLC
0.652

* * *

system: Saccharomyces cerevisiae; assay: protein stability index of tFT-peptide fusion (C-terminal peptide) (PSI (0-1 scale)); higher = more stable (slower turnover); details: genetic background: doa10 deletion; temperature: 30 C
Measured protein stability index accompanies every entry in the list below.

Below are worked cases with known answers.
Look at this sequence and give its reported protein stability index. VFFLFAVCSVLV
0.0641

Try SLLFVFVSVGCI next.
0.116

Now for another entry.
Look at this sequence and give its reported protein stability index. VVGRWGFVVECW
0.227
